Origin of the recorded values: ChEMBL document CHEMBL4715798

Molecular target: Delta-type opioid receptor (Homo sapiens, UniProt P41143)
Sequence (P41143 whole entry): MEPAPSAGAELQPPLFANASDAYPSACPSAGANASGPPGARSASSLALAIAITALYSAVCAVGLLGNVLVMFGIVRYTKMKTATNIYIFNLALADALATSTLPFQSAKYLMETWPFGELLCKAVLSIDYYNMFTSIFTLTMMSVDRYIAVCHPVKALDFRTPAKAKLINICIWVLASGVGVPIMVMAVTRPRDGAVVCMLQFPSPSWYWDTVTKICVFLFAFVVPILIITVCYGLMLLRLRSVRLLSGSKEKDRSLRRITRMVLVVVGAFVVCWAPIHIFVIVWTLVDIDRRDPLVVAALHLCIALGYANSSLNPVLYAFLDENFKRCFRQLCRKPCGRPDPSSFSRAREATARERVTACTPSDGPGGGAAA
Assay: Agonist activity at delta opioid receptor (unknown origin) expressed in HEK293-A cells assessed as reduction in forskolin-induced cAMP accumulation incubated for 30 mins by competition PKA binding assay
Non-standard residues stand in square brackets, D forms with d. Residues, ends and D or L forms follow the SMILES beside them. NMeF = CN[C@@H](Cc1ccccc1)C(=O)O
Property name: EC50 (nM)

{"Molecule": "CC(C)C[C@H](NC(=O)[C@H](Cc1ccccc1)NC(=O)CNC(=O)[C@@H](C)NC(=O)[C@@H](N)Cc1ccc(O)cc1)C(=O)N1CCC[C@H]1C(=O)N[C@@H](CCC(N)=O)C(=O)N[C@@H](CCCNC(=N)N)C(=O)N[C@@H](Cc1ccccc1)C(N)=O (H-Y[dA]GFLPQRF-NH2)", "Unit abbreviation": "nM", "Test value": 49.3}
{"Molecule": "C[C@@H](NC(=O)[C@@H](N)Cc1ccc(O)cc1)C(=O)NCC(=O)N(C)[C@@H](Cc1ccccc1)C(=O)N[C@@H](CCC(N)=O)C(=O)N1CCC[C@H]1C(=O)N[C@@H](CCC(N)=O)C(=O)N[C@@H](CCCNC(=N)N)C(=O)N[C@@H](Cc1ccccc1)C(N)=O (H-Y[dA]G[NMeF]QPQRF-NH2)", "Unit abbreviation": "nM", "Test value": 157}
{"Molecule": "N=C(N)NCCC[C@H](NC(=O)[C@H](CCC(N)=O)NC(=O)[C@@H]1CCCN1C(=O)[C@H](CCC(N)=O)NC(=O)[C@H](Cc1ccccc1)NC(=O)CNC(=O)[C@@H](CO)NC(=O)[C@@H](N)Cc1ccc(O)cc1)C(=O)N[C@@H](Cc1ccccc1)C(N)=O", "Unit abbreviation": "nM", "Test value": 118}
{"Molecule": "CSCC[C@@H](NC(=O)[C@@H](N)Cc1ccc(O)cc1)C(=O)NCC(=O)N[C@@H](Cc1ccccc1)C(=O)N[C@@H](CCC(N)=O)C(=O)N1CCC[C@H]1C(=O)N[C@@H](CCC(N)=O)C(=O)N[C@@H](CCCNC(=N)N)C(=O)N[C@@H](Cc1ccccc1)C(N)=O", "Unit abbreviation": "nM", "Test value": 114}
